- assay-target: E. coli ATP synthase (purified F1 or membrane bound F1Fo) (Escherichia coli, UniProt P0ABA6+P0ABB0+P0ABB4)
- Sequence (P0ABA4 whole entry): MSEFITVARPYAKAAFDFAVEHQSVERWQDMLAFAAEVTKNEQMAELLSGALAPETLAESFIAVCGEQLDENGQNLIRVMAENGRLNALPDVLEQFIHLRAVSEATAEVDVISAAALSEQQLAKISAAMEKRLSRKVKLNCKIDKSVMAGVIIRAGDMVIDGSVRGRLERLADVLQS
- Sequence (P0ABB4 2-460): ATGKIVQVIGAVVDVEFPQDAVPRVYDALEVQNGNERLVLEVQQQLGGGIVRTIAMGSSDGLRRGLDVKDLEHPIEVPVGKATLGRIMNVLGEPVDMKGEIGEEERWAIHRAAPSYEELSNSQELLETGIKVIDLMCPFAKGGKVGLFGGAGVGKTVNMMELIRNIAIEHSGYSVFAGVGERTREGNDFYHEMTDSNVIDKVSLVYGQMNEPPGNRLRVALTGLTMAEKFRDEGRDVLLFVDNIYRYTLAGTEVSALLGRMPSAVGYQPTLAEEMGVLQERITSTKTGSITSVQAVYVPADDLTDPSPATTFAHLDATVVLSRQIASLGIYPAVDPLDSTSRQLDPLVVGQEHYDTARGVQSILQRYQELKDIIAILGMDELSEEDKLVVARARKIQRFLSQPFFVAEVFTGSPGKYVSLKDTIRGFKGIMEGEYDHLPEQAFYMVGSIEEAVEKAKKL
- Sequence (P0ABA6 whole entry): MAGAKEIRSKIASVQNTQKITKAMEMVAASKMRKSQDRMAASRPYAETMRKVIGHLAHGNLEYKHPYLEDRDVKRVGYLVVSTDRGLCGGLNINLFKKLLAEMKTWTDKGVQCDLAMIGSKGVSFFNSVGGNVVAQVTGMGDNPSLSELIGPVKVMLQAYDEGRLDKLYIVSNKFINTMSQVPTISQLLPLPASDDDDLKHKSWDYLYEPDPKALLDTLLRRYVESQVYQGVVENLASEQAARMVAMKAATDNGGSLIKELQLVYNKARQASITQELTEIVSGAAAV
- Sequence (P0A6E6 2-139, further chain): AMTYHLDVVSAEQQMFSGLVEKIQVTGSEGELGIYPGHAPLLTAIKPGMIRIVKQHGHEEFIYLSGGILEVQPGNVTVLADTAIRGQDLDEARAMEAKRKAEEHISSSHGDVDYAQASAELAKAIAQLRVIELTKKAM
- Sequence (P0ABB0 whole entry): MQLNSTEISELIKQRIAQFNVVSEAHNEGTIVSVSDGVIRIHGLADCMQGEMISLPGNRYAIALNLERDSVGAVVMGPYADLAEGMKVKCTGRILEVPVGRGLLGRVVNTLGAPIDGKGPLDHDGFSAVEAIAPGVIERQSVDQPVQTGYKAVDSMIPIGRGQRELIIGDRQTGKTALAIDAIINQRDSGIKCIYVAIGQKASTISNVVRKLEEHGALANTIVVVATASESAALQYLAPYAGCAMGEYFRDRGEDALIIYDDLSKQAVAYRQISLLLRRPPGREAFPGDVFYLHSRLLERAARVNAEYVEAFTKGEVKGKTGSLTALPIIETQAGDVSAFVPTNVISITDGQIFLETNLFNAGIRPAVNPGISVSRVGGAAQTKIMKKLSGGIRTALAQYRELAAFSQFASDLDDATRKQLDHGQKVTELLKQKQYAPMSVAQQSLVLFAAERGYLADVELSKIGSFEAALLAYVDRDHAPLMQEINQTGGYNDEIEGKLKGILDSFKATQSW
- method-notes: biochemical
measurement-label: IC50

| compound | experimental-result |
| --- | --- |
| O=[N+]([O-])c1cc(O)ccc1N=Cc1ccccc1O | ~6 µM |
| O=[N+]([O-])c1ccc(N=Cc2ccccc2O)c(O)c1 | ~5 µM |
| Oc1cccc(C=Nc2ccccc2O)c1 [PC07, 3-[[(2-Hydroxyphenyl)imino]methyl]phenol] | ~9 µM |
| Oc1ccc(N=Cc2ccccc2O)cc1 [PC05, 2-[[(4-hydroxyphenyl)Imino]methyl]phenol] | ~5 µM |
| Oc1ccccc1C=Nc1ccccc1O [PC09, 2-[[(2-Hydroxyphenyl)imino]methyl]phenol] | ~7 µM |
